These entries and their values trace back to paper PMC9739815.

Tested on: H23 cells
Assay: MTT cell viability assay, H23 cells
Type: cell-based
Conditions: Homo sapiens, NCI-H23, 24 h, 0–200 µM, read-out: IC50 ± SEM of NSCLC cells, H23
Recorded IC50 values for a group of compounds are listed next.
Give just the number in µM; leave the unit off.

[[record]]
compound = "COc1cc(CCc2cc(C)c(OC)c(O)c2)cc(OC)c1O [RD1]"
measurement_label = "IC50"
quantitative_result = 129

[[record]]
compound = "COc1ccc(CCc2cc(OC)c(O)c(OC)c2)cc1O [RD4]"
measurement_label = "IC50"
quantitative_result = 109

[[record]]
compound = "COc1cc(CCc2ccc(O)c(OC)c2)ccc1O [RD2]"
measurement_label = "IC50"
quantitative_result = 104


Kindly review the next compound as well.
Q. I'd like to know its IC50. The compound in question is COc1cc(CCc2cc(OC)c(O)c(OC)c2)cc(OC)c1O [RD5]
A. 82.6
